assay: Human HepG2 cell viability assay in 384 well format; type: toxicity, cell-based; set-up: dose 125 nL, time 70.5 hour; concentration not given beside the values; settings: HepG2 cells, read-out: Inhibition
Entries annotated with measured cytotoxicity at 70.5 h
# output: bare number, implied unit %

Please review the following examples before continuing.
| compound | cytotoxicity at 70.5 h [%] |
| --- | --- |
| COc1ccc(CN2CCc3nnc(COCCN(C)C)n3CC2)cc1 | -17.3 |
| Cc1n[nH]c(C)c1C1COCCN1C(=O)c1cc(F)ccc1F (stereo not given) | -8.76 |
| O=C(NCc1ccccn1)[C@H]1COC[C@H]2CN(c3ncccn3)C[C@H]21 | -4.8 |
| Cn1ccnc1S(=O)(=O)C(C(=O)N1CCCCC1)c1ccccc1 (stereo not given) | 23.2 |
| COCCN1CCCC2(CCN(c3nc(C)nc4ccsc34)C2)C1=O (stereo not given) | -11.8 |

// query cytotoxicity at 70.5 h value for entry "CCOCc1ncn2c1CN(S(=O)(=O)c1ccc(C)cc1)CC2"
35.9

Also O=C(CC1CCC1)N1CCCC(CO)(CC2CC2)C1 (stereo not given) , if possible.
-7.78

Next record, please: "Cc1ccc(F)cc1S(=O)(=O)NCc1cccc(CS(C)(=O)=O)c1"
-6.95

What about "CCn1c(CNC(=O)c2ccc(N(C)C)nc2)nc2ccccc21" ?
-8.62

How about "CCc1nc(CN2CCCN(C(=O)COC(C)C)CC2)cs1" ?
2.07

Then "CSc1ccsc1C(=O)NS(=O)(=O)c1cccc(C#N)c1" ?
-13.1

Also Cc1cccc(CN2CCCC(c3nccs3)C2)n1 (stereo not given) , if possible.
-1.28

What would you report for "Cc1cccc(CN2C(=O)CCC23CCN(C(=O)NC(C)C)CC3)n1" ?
-2.54

Param item: "O=C(Nc1ccc(CCN2CCOCC2)cc1)C1CCCC1"
-3.35

Param item: "O=C(CC1CC1)NCc1cn2c(n1)CN(Cc1nccs1)CC2"
-6.29

Now try "Cc1nn(Cc2ccc(F)cc2)c2[nH]nc(N)c12" .
-9.36

Note, next up: "CC(C)N(CC(N)=O)Cc1c(Cl)ccc2cccnc12"
-8.03

* * *

experiment: Human HepG2 cell viability assay in 384 well format; type: toxicity, cell-based; design: dose 125 nL, time 70.5 hour; concentration not given beside the values; details: HepG2 cells, read-out: Inhibition
Quick list: cytotoxicity at 70.5 h per entry.
Return type: number; implicit unit %.

Some molecules with recorded cytotoxicity at 70.5 h:
| molecule | unit.symbol | cytotoxicity at 70.5 h |
| --- | --- | --- |
| Cc1cc2c(=O)n3c(nc2s1)CCN(Cc1cnc(C)n1C)CC3 | % | -4.27 |
| Cc1nc2cc(C(=O)N3C[C@@H](NS(C)(=O)=O)[C@H](C(C)C)C3)ccc2[nH]1 | % | 18.5 |
| CC(C)C(=O)N1CCOC[C@H](Oc2ccc(C(F)(F)F)cc2)C1 | % | -1.93 |

I am curious: what cytotoxicity at 70.5 h value has been reported for "CCc1nnc2n1CCN(C(=O)CCc1ccc(C)c(Cl)c1)C2" ?
-1.97

Now the molecule "c1cc(CNCc2ccnc(N3CCCC3)c2)c2c(c1)OCO2"
-6.8

Again, but for O=C(NCCC(O)c1cccs1)c1ccco1 (configuration not stated)
-9.55

Proceed to CN(C)C(=O)NC1COC2(CCN(Cc3ccc(Cl)c(F)c3)CC2)C1 (configuration not stated)
-8.77
